Where do these numbers come from? They come from ChEMBL document CHEMBL5518193.

experimentNotes: Tmax in BALB/c mouse at 12.5 mg/kg, ip administered as liposome encapsulated form measured upto 24 hrs by LC-MS/MS analysis
Format: ADME, organism-based
reportedConditions: in vivo
metric: Tmax (h)

{"smiles": "NCCN(Cc1ccc2ccccc2c1)c1nc(C(=O)Nc2ccc(O)cc2)cs1", "measurement": 4}

---

experimentNotes: Cmax in BALB/c mouse at 25 mg/kg, ip administered as liposome encapsulated form and measured upto 24 hrs by LC-MS/MS analysis
Type: ADME, organism-based
reportedConditions: in vivo

{"smiles": "NCCN(Cc1ccc2ccccc2c1)c1nc(C(=O)Nc2ccc(O)cc2)cs1", "Cmax [ng/mL]": 1220}

---

experimentNotes: Terminal half life in BALB/c mouse at 12.5 mg/kg, ip administered as liposome encapsulated form and measured upto 24 hrs by LC-MS/MS analysis
Format: ADME, organism-based
reportedConditions: in vivo, read-out: beta t1/2 (converted)
metric: half-life (h)

{"smiles": "NCCN(Cc1ccc2ccccc2c1)c1nc(C(=O)Nc2ccc(O)cc2)cs1", "measurement": 6.8}

---

experimentNotes: Tmax in BALB/c mouse at 25 mg/kg, ip administered as liposome encapsulated form and measured upto 24 hrs by LC-MS/MS analysis
Format: ADME, organism-based
reportedConditions: in vivo

{"smiles": "NCCN(Cc1ccc2ccccc2c1)c1nc(C(=O)Nc2ccc(O)cc2)cs1", "Tmax [h]": 4}

---

experimentalTarget: Short transient receptor potential channel 6 (Mus musculus) (UniProt Q61143)
Sequence (whole entry): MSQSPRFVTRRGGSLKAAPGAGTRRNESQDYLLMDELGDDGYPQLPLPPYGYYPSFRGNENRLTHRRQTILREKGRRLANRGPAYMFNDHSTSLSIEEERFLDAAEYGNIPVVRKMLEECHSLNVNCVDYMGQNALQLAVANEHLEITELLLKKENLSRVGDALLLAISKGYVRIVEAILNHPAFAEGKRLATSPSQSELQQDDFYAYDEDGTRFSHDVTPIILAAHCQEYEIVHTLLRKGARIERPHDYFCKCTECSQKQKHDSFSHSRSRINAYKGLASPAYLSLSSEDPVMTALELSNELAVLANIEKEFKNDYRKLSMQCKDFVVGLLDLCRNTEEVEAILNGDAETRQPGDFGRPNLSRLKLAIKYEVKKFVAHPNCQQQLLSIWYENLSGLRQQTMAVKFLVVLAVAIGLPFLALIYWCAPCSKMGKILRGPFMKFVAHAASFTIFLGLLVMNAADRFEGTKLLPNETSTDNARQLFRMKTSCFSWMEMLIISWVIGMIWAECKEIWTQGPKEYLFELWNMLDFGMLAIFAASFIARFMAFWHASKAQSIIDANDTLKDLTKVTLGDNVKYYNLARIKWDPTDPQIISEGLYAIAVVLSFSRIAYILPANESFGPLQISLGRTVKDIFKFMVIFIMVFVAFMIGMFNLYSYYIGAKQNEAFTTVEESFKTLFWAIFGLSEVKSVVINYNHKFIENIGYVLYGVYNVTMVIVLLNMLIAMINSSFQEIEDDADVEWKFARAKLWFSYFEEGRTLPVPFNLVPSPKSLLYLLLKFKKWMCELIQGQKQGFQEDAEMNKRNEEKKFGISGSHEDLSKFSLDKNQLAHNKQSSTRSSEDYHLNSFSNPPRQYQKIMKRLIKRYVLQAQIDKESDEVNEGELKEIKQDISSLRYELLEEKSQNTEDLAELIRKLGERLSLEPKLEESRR
experimentNotes: Antagonist activity at mouse TRPC6 stably expressed in HEK293 cells assessed as inhibition of calcium influx at 10 uM by calcium fluorescence assay relative to control
Assay type: cell-based
reportedConditions: filed as antagonist

{"smiles": "CCOC(=O)c1csc(N(CCN)Cc2ccc3ccccc3n2)n1", "resultUnits": "%", "inhibition": 56.6}
{"smiles": "CCOC(=O)c1csc(N(CCN)Cc2cccc3ccccc23)n1", "resultUnits": "%", "inhibition": 77.6}
{"smiles": "NCCN(Cc1ccc2ccccc2c1)c1nc(C(=O)Nc2ccc(O)cc2)cs1", "resultUnits": "%", "inhibition": 100}
